Reference for the values: ChEMBL document CHEMBL1759993

# ASSAY SUMMARY: Inhibition of beta-lactamase CMY-2 using nitrocefin as substrate after 30 mins by spectrophotometric analysis
ENDPOINT LABEL: pKi
// returns pKi (minus log10 of molar concentration), number only

Which value of pKi has been reported for OB1OCc2ccc(C(O)c3ccccc3)cc21 (configuration not stated) in the records?
5.07

Now try OB1OCc2ccc(Nc3ccccc3)cc21 .
4.86

Now try Nc1cccc(Oc2ccc3c(c2)B(O)OC3)c1 .
5.22

---

# ASSAY SUMMARY: Inhibition of beta-lactamase TEM1 using nitrocefin as substrate after 30 mins by spectrophotometric analysis
Measured log10(Ki) by item
Answers are given as log10 of Ki in µM.

Worked examples, 8 molecules total:
molecule=CCOC(=O)c1ccc(Oc2ccc3c(c2)B(O)OC3)cc1 endpoint_label=log10(Ki) test_value=0.49
molecule=COc1cccc(Oc2ccc3c(c2)B(O)OC3)c1 endpoint_label=log10(Ki) test_value=0.15
molecule=COc1ccc(Oc2ccc3c(c2)B(O)OC3)cc1 endpoint_label=log10(Ki) test_value=0.64
molecule=Nc1cccc(Oc2ccc3c(c2)B(O)OC3)c1 endpoint_label=log10(Ki) test_value=0.00
molecule=O=C(c1ccccc1)c1ccc2c(c1)B(O)OC2 endpoint_label=log10(Ki) test_value=1.03
molecule=OB1OCc2ccc(Oc3ccccc3)cc21 endpoint_label=log10(Ki) test_value=0.01
molecule="[O-][S+](c1ccccc1)c1ccc2c(c1)B(O)OC2 (stereo not drawn)" endpoint_label=log10(Ki) test_value=0.69
molecule=OB1OCc2ccc(Sc3ccccc3)cc21 endpoint_label=log10(Ki) test_value=0.25

Which value of log10(Ki) has been reported for O=C(O)c1cnc(Oc2ccc3c(c2)B(O)OC3)cn1 in the records?
1.31

Now try O=C(O)c1cnc(Oc2ccc3c(c2)B(O)OC3)nc1 .
1.17

Now try OB1OCc2ccc(Oc3cccc(OCc4ccccc4)c3)cc21 .
0.03

Now try OCc1cccc(Oc2ccc3c(c2)B(O)OC3)c1 .
0.13

Now try O=S(=O)(c1ccccc1)c1ccc2c(c1)B(O)OC2 .
1.05

---

# TARGET OR TEST SYSTEM: Beta-lactamase (Enterobacter cloacae)
# Sequence (P05364 whole entry): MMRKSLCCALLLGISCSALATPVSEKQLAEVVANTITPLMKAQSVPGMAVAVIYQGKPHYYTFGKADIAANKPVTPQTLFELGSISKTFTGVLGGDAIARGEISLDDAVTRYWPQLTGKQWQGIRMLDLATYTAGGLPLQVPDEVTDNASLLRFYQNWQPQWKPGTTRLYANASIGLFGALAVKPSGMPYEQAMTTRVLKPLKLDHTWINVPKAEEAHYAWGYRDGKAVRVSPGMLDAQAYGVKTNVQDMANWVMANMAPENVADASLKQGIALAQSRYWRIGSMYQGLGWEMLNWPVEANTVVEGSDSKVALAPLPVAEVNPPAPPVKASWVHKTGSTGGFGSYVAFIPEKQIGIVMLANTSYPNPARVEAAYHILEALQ
# ASSAY SUMMARY: Inhibition of Enterobacter cloacae P99 beta-lactamase AmpC P99 using nitrocefin as substrate after 30 mins by spectrophotometric analysis
pKi: −log10 of the molar value.
Give Met when the value for pKi is at least 6. Give Not met when it is less.

structure_notation=O=C(O)c1cnc(Oc2ccc3c(c2)B(O)OC3)cn1 class_assignment=Met
structure_notation=OB1OCc2ccc(Nc3ccccc3)cc21 class_assignment="Not met"
structure_notation=O=C(O)c1cnc(Oc2ccc3c(c2)B(O)OC3)nc1 class_assignment=Met

Form field: pKi at least 6? Entry: O=C(ONc1ccccc1)c1ccc2c(c1)B(O)OC2
Not met

Now try O=C(c1ccccc1)c1ccc2c(c1)B(O)OC2 .
Not met

Now try OB1OCc2ccc(Oc3cccc(OCc4ccccc4)c3)cc21 .
Not met

---

# ASSAY SUMMARY: Inhibition of beta-lactamase CMY-2 using nitrocefin as substrate after 30 mins by spectrophotometric analysis
Measured Ki by item
Please state the figure in µM; there is no need to write the unit.

Worked examples, 4 compounds total:
compound=COc1cccc(Oc2ccc3c(c2)B(O)OC3)c1 test_value=2.65
compound=O=C(c1ccccc1)c1ccc2c(c1)B(O)OC2 test_value=46.9
compound=OB1OCc2ccc(Oc3ccccc3)cc21 test_value=1.51
compound=OB1OCc2ccc(Oc3cccc(OCc4ccccc4)c3)cc21 test_value=74.5

Which value of Ki has been reported for OB1OCc2ccc(Sc3ccccc3)cc21 in the records?
12.7

Now try OB1OCc2ccc(Oc3cccc(O)c3)cc21 .
3.12

Now try O=C(O)c1cnc(Oc2ccc3c(c2)B(O)OC3)nc1 .
0.07

Now try OB1OCc2ccc(Cc3ccccc3)cc21 .
25.6

Now try O=C(ONc1ccccc1)c1ccc2c(c1)B(O)OC2 .
13.8

Now try OCc1cccc(Oc2ccc3c(c2)B(O)OC3)c1 .
8.43

Now try [O-][S+](c1ccccc1)c1ccc2c(c1)B(O)OC2 (centres undefined) .
59.3

Now try O=S(=O)(c1ccccc1)c1ccc2c(c1)B(O)OC2 .
108
